System: APEC O1-63
Type: cell-based, avian pathogenic Escherichia coli (APEC)
Conditions: APEC O1-63, M63 media; MIC/MBC
# MBC per record follows
Measurement Type: MBC (µM)

INSERT INTO measurements (compound, system_tested, reading_unit, observed_value) VALUES
  ('COc1ccc(CCN(Cc2cc3c(cc2Cl)OCO3)CC2CCN(C)CC2)cc1', 'APEC O1-63', 'µM', 200),
  ('COc1ccc(CNCc2cccc(C(F)(F)F)c2)cc1OCC(O)CN1CCCC1 (stereo not shown)', 'APEC O1-63', 'µM', 100),
  ('CCCCCCCCCCCCCCCCn1c[n+](C)c2ccccc21.[Br-]', 'APEC O1-63', 'µM', 25),
  ('CC(=O)OC(C(Br)C(=O)c1ccc([N+](=O)[O-])cc1)C(Cl)(Cl)Cl (stereo not shown)', 'APEC O1-63', 'µM', 100),
  ('CC1CCC(C(C)C)C(OC(=O)Cn2c[n+](CC(=O)OC3CC(C)CCC3C(C)C)c3ccccc32)C1.[Cl-] (stereo not shown)', 'APEC O1-63', 'µM', 50),
  ('COc1cc(CNCCc2ccc3ccccc3c2)ccc1OCC(O)CN1CCCC1 (stereo not shown)', 'APEC O1-63', 'µM', 250),
  ('COc1cc(CNCCc2ccc(C)cc2)ccc1OCC(O)CN1CCCC1 (stereo not shown)', 'APEC O1-63', 'µM', 200),
  ('CCN1C(=Cc2ccc3ccccc3[n+]2CC)C=Cc2ccccc21.[Cl-]', 'APEC O1-63', 'µM', 100),
  ('CC1CCCN(CCC(=O)c2ccc(Br)cc2)C1.Cl (stereo not shown)', 'APEC O1-63', 'µM', 250),
  ('CCCCCCCCCCCCCCCC[n+]1ccn(CC#N)c1', 'APEC O1-63', 'µM', 25);

====

System: intracellular APEC O78 in Caco-2 cells
Assay: Intracellular survival assay (cidal SMs)
Details: O78, Caco-2, 6 h treatment; superscript = multiple of MIC
Marks after values point to notes of the source that are not given here.
As shown below, each of these compounds has a reported SMs intracellular APEC clearance concentration value.
Measurement Type: SMs intracellular APEC clearance concentration

INSERT INTO results (compound, observed_value) VALUES
  ('COc1ccc(CNCc2cccc(C(F)(F)F)c2)cc1OCC(O)CN1CCCC1 (stereo not shown)', '100^c µM'),
  ('CCCCCCCCCCCCCCCCn1c[n+](C)c2ccccc21.[Br-]', '50^c µM'),
  ('CCCCCCCCCCCCCCCC[n+]1ccn(CC#N)c1', '50^c µM'),
  ('CCN1C(=Cc2ccc3ccccc3[n+]2CC)C=Cc2ccccc21.[Cl-]', '50^b µM'),
  ('COc1cc(CNCCc2ccc(C)cc2)ccc1OCC(O)CN1CCCC1 (stereo not shown)', '100^a µM'),
  ('CC1CCC(C(C)C)C(OC(=O)Cn2c[n+](CC(=O)OC3CC(C)CCC3C(C)C)c3ccccc32)C1.[Cl-] (stereo not shown)', '50^b µM'),
  ('COc1ccc(CCN(Cc2cc3c(cc2Cl)OCO3)CC2CCN(C)CC2)cc1', '100^a µM'),
  ('CC1CCCN(CCC(=O)c2ccc(Br)cc2)C1.Cl (stereo not shown)', '200^a µM'),
  ('CC(=O)OC(C(Br)C(=O)c1ccc([N+](=O)[O-])cc1)C(Cl)(Cl)Cl (stereo not shown)', '100^c µM'),
  ('COc1cc(CNCCc2ccc3ccccc3c2)ccc1OCC(O)CN1CCCC1 (stereo not shown)', '100^a µM');
